Listed binders paired with reported EC50
# System Name: recombinantly produced human-NGF (human, UniProt P01138 122-241, limits assumed)
# Sequence (P01138 122-241 limits assumed): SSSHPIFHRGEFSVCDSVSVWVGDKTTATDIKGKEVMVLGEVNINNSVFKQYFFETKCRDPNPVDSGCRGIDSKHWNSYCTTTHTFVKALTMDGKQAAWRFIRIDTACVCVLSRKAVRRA
# Assay: ELISA, human NGF coated, IgG titrated
Give the value, in units of ng/mL, as a plain number.

The following binders have reported results that may help.
Query Ab58 (antibody, human IgG1, V domains shown) VH: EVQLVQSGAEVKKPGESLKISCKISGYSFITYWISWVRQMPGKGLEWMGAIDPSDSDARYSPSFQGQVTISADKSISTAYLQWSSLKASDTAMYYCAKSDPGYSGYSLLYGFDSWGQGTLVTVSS VL: DIVMTQSPLSLPVTLGQPASISCRSSQSLVQRNGNTYLSWYQQRPGQSPRLLIYQVSNRYSGVPDRFSGSGSGTDFTLKISRVEAEDVGVYYCGQGAHLPLTFGQGTKVEIK yields EC50 of 0.0153

# EC50 of Ab25 (antibody, human IgG1, V domains shown) VH: EVQLVQSGAEVKKPGATVKISCKVSGYSFITYWISWVQQAPGKGLEWMGAIDPSDSDARYSPSFQGRVTITADKSTDTAYMELSSLRSEDTAVYYCAKSDPGYSGYSLLYGFDSWGQGTLVTVSS VL: DVVMTQSPLSLPVTLGQPASISCRSSQSLVQRNGNTYLSWYQQRPGQPPRLLIYQVSNRYSGVPDRFSGSGSGTDFTLKISRVEAEDVGVYYCGQGAHLPLTFGQGTKVEIK = 0.0331

Please look at the following binder next.
// EC50 value for Ab12 (antibody, human IgG1, V domains shown) VH: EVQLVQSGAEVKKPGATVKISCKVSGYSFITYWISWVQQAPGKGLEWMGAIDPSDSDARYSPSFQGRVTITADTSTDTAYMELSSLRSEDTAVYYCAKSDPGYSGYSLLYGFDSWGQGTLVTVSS VL: DIVMTQTPLSSPVTLGQPASISCRSSQSLVQRNGNTYLSWYQQRPGQPPRLLIYQVSNRYSGVPDRFSGSGAGTDFTLKISRVEAEDVGVYYCGQGAHLPLTFGQGTKVEIK : 0.0365

Cited source: patent US20230220057A1
